Target Of Assay: human recombinant serotonin (5-Hydroxytryptamine) 5-HT7 receptor (Homo sapiens, UniProt P34969)
Sequence (P34969 whole entry): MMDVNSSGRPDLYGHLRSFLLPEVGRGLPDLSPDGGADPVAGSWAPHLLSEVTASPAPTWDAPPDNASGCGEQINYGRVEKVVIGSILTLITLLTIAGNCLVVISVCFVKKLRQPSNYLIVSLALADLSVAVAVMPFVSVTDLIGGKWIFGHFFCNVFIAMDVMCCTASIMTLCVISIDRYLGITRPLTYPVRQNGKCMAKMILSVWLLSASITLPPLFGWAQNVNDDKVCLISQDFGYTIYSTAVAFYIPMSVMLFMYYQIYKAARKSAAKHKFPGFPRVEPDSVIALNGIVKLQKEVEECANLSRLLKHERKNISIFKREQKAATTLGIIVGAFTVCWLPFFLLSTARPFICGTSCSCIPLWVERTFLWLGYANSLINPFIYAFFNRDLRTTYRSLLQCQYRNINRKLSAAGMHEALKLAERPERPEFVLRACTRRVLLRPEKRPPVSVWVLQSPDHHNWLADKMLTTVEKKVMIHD
Procedure Summary: Serotonin 5-HT7 radioligand binding ([3H]LSD)
Measurement Setup: compound at 0.1 μM; read-out: Percentage inhibition of ligand binding, Serotonin (0.1 μM) 5-HT7
Below, each entry is listed with its recorded inhibition at 0.1 µM.

Solved entries:
- Compound: "Cc1ccc2[nH]c3c(c2c1)CN(C)CC3(C)CCc1ccc(C)nc1 (stereo not drawn)"
  inhibition at 0.1 µM: "-10%"
- Compound: "Cc1ccc2c(c1)c1c(n2C)C(C)(CCc2nc(-c3ccccc3)cs2)CN(C)C1 (stereo not drawn)"
  inhibition at 0.1 µM: "17%"
- Compound: "Cc1ccc2[nH]c3c(c2c1)CN(C)CC3(C)CCc1ccccc1 (stereo not drawn)"
  inhibition at 0.1 µM: "-23%"
- Compound: "Cc1ccc2c(c1)c1c(n2C)C(C)(CCc2ccccc2)CN(C)C1 (stereo not drawn)"
  inhibition at 0.1 µM: "29%"
- Compound: "Cc1ccc2c(c1)c1c(n2C)C(C)(CCc2ccc(C)nc2)CN(C)C1 (stereo not drawn)"
  inhibition at 0.1 µM: "-6%"

Please examine the following record next.
Look at this compound and give its reported inhibition at 0.1 µM. C#CCC1(C)CN(C)Cc2c1n(C)c1ccc(C)cc21 (stereo not drawn)
13%

---

Target Of Assay: human recombinant histamine H1 receptor (Homo sapiens, UniProt P35367)
Sequence (P35367 whole entry): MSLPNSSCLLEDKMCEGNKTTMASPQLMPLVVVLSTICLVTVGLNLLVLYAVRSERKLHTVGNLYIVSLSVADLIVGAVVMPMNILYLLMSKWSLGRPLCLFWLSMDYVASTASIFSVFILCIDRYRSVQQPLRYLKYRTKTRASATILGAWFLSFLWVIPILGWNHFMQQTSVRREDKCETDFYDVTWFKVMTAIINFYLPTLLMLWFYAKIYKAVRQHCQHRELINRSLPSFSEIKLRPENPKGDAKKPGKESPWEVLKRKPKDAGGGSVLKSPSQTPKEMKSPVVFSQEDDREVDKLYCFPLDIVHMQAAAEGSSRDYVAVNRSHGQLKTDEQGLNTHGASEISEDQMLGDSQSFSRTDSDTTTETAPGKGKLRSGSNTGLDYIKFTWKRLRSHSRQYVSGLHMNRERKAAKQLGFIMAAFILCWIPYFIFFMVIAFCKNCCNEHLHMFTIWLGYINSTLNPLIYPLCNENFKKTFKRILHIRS
Procedure Summary: Histamine H1 radioligand binding ([3H]Pyrilamine)
Measurement Setup: compound at 1 μM; 1.2 nM [3H]Pyrilamine; read-out: Binding data (Percentage inhibition) Histamine H1 (1 μM)
Measured Property: inhibition at 1 µM
Quick note: number first, unit second.

Answered examples (3):
- Molecule: "Cc1ccc2c(c1)c1c(n2C)C(C)(CCc2ccccc2)CN(C)C1 (stereo not shown) [Compound 44]"
  Reported Value: "101%"
- Molecule: "Cc1ccc2[nH]c3c(c2c1)CN(C)CC3(C)CCc1ccc(C)nc1 (stereo not shown) [Compound 46]"
  Reported Value: "34%"
- Molecule: "Cc1ccc2[nH]c3c(c2c1)CN(C)CC3(C)CCc1ccccc1 (stereo not shown) [Compound 43]"
  Reported Value: "93%"

The record that follows has no inhibition at 1 µM shown yet.
What value of inhibition at 1 µM has been recorded for this entry: Cc1ccc2c(c1)c1c(n2C)C(C)(CCc2ccc(C)nc2)CN(C)C1 (stereo not shown) [Compound 45]
99%

---

The reader will find reported inhibition at 0.1 µM values listed item by item below.
Target Of Assay: human recombinant serotonin (5-Hydroxytryptamine) 5-HT2C receptor (Homo sapiens, UniProt P28335)
Construct: expressed in transfected cells; host or cells: Chinese hamster ovary (CHO) K1 cells
Sequence (P28335 33-458): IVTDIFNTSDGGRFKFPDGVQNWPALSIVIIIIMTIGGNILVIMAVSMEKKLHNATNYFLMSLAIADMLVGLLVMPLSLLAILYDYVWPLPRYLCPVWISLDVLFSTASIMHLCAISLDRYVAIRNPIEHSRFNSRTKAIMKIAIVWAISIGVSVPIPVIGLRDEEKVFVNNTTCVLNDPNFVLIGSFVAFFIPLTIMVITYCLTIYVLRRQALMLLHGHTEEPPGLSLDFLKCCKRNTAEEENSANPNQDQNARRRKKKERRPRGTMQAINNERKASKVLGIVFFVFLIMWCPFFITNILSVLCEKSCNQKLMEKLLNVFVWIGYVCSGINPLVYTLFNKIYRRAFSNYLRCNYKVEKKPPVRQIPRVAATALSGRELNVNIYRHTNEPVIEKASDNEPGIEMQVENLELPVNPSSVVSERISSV
Procedure Summary: Serotonin 5-HT2C radioligand binding ([3H]Mesulergine)
Measurement Setup: compound at 0.1 μM; read-out: Percentage inhibition of ligand binding, Serotonin (0.1 μM) 5-HT2C
State the answer as a number, implicitly in %.

Example entries begin here.
- Compound: "Cc1ccc2c(c1)c1c(n2C)C(C)(CCc2ccccc2)CN(C)C1 (stereo not drawn) [Compound 44]"
  Measured Property: "inhibition at 0.1 µM"
  Result Units: "%"
  Reported Value: 12
- Compound: "Cc1ccc2[nH]c3c(c2c1)CN(C)CC3(C)CCc1ccccc1 (stereo not drawn) [Compound 43]"
  Measured Property: "inhibition at 0.1 µM"
  Result Units: "%"
  Reported Value: -4
- Compound: "C#CCC1(C)CN(C)Cc2c1n(C)c1ccc(C)cc21 (stereo not drawn) [Compound 47]"
  Measured Property: "inhibition at 0.1 µM"
  Result Units: "%"
  Reported Value: 19
- Compound: "Cc1ccc2[nH]c3c(c2c1)CN(C)CC3(C)CCc1ccc(C)nc1 (stereo not drawn) [Compound 46]"
  Measured Property: "inhibition at 0.1 µM"
  Result Units: "%"
  Reported Value: 8
- Compound: "Cc1ccc2c(c1)c1c(n2C)C(C)(CCc2nc(-c3ccccc3)cs2)CN(C)C1 (stereo not drawn) [Compound 48]"
  Measured Property: "inhibition at 0.1 µM"
  Result Units: "%"
  Reported Value: 25

Which value of inhibition at 0.1 µM has been reported for Cc1ccc2c(c1)c1c(n2C)C(C)(CCc2ccc(C)nc2)CN(C)C1 (stereo not drawn) [Compound 45] in the records?
6

---

Target Of Assay: human recombinant dopamine D2L receptor (Homo sapiens, UniProt P14416)
Sequence (P14416 whole entry): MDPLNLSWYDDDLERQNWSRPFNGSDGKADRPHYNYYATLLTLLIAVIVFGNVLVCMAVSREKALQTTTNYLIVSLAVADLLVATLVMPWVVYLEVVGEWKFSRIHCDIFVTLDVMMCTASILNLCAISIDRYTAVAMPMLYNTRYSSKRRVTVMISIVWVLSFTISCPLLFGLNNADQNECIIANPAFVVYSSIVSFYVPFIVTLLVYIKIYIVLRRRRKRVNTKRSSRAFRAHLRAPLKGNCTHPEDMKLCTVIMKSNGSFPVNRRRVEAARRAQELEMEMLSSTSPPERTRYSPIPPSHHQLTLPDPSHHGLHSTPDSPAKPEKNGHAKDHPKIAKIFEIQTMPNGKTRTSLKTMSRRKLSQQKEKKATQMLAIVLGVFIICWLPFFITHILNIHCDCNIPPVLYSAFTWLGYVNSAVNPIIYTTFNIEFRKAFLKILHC
Procedure Summary: Dopamine D2L radioligand binding ([3H]Spiperone)
Measurement Setup: compound at 1 μM; read-out: Percentage inhibition of ligand binding, Dopamine (1 μM) D2L
Measured Property: inhibition at 1 µM (%)
Value expressed in %; do not type the unit.

# count of solved cases: 2
- Compound: "Cc1ccc2c(c1)c1c(n2C)C(C)(CCc2ccccc2)CN(C)C1 (stereo not drawn)"
  Result Units: "%"
  inhibition at 1 µM: 33
- Compound: "Cc1ccc2[nH]c3c(c2c1)CN(C)CC3(C)CCc1ccc(C)nc1 (stereo not drawn)"
  Result Units: "%"
  inhibition at 1 µM: 3

# evaluate next
Recorded inhibition at 1 µM for Cc1ccc2[nH]c3c(c2c1)CN(C)CC3(C)CCc1ccccc1 (stereo not drawn) with human recombinant dopamine D2L receptor (Homo sapiens, UniProt P14416), please?
23
